Reference for the values: patent US20260250290A1

- target.under.test: full length SGK1 (Homo sapiens, UniProt O00141)
- Construct: 125 μM full length SGK1 (Life Technologies Part #PR7358A); purchased Life Technologies PR7358A
- Sequence (O00141 whole entry): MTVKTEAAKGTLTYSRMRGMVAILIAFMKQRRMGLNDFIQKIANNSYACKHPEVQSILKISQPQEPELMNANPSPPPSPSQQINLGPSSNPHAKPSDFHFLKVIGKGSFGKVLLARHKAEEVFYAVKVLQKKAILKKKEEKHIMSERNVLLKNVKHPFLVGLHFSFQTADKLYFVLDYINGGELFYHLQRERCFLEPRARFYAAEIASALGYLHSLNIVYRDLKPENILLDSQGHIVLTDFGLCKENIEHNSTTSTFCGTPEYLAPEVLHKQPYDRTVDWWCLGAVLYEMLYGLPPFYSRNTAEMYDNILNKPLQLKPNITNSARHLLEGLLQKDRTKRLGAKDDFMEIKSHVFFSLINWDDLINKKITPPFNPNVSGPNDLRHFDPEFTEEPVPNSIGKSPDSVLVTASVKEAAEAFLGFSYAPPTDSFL
- procedure.details: SGK1 inhibition Assay A (Caliper LabChip electrophoretic separation of fluorescent peptide substrate and phosphorylated product)
- Assay type: biochemical
- settings: Assay A; 20 μM ATP, 40 min incubation; read-out: SGK1 IC50
quantity.measured: pIC50
Friendly reminder that pIC50 comes from taking -log10 of the concentration in mol/L.

CN(C)CCOc1cc(Cl)sc1C(=O)N[C@@H]1CCCN(c2cc(-c3ccc(C=O)cc3)n3ncnc(N)c23)C1 : 9.00
COC(=O)N1CC=C(c2cc(N3CCC[C@@H](NC(=O)c4sc(Cl)cc4OCCN4C[C@@H](C)O[C@@H](C)C4)C3)c3c(N)ncnn23)C1 : 7.66
Cc1ccccc1C(=O)N[C@@H]1CCCN(c2cc(-c3ccc(S(C)(=O)=O)cc3)n3ncnc(N)c23)C1 : 6.68

Kindly note the recorded pIC50 for Cc1nc(C)c(C(=O)N[C@@H]2CCCN(c3cc(-c4ccc(C#N)nc4)n4ncnc(N)c34)C2)s1 , which is 7.18
